I'd be grateful if you could share measured residual activity for these entries.
- SUBJECT OF TEST: UniProtKB Q7KZI7
- Sequence (Q7KZI7 whole entry, looked up): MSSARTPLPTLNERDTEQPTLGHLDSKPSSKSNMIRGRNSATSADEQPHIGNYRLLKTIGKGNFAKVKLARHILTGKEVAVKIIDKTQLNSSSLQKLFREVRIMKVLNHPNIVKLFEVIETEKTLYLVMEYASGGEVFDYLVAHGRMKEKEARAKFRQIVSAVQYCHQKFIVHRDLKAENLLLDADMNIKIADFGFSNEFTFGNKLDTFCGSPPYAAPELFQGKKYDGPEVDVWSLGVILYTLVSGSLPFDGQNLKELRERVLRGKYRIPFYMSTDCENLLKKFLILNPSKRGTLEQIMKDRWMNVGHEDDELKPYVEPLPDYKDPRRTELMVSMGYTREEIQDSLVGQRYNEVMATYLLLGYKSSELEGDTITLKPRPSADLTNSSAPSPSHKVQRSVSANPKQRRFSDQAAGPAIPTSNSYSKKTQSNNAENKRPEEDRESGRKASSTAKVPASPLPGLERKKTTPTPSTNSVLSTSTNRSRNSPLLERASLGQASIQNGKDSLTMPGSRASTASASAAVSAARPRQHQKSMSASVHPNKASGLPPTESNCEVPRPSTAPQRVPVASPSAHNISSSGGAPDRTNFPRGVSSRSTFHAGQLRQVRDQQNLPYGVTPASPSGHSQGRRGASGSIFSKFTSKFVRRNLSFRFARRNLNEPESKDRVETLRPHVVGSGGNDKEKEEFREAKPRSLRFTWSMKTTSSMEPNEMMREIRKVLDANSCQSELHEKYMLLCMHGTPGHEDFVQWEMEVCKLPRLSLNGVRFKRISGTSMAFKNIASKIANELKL
- PROTOCOL: radiometric filter-binding kinase assay, Kinase HotSpot
- STATED CONDITIONS: compound 0.5 µM; ATP 10 µM
One number for each entry, in %.

Worked cases, residual activity given:
compound="O=C(NC(NC(=S)Nc1ccc(F)c([N+](=O)[O-])c1)C(Cl)(Cl)Cl)C(c1ccccc1)c1ccccc1 (centres undefined)" subject_of_test="UniProtKB Q7KZI7" attribute_measured="residual activity" readout_units=% numeric_value=92.3
compound=O=C1Cc2c([nH]c3ccc([N+](=O)[O-])cc23)-c2ccccc2N1 subject_of_test="UniProtKB Q7KZI7" attribute_measured="residual activity" readout_units=% numeric_value=52.4
compound=COc1ccc(-c2cnc3c(-c4ccsc4)cnn3c2)cc1 subject_of_test="UniProtKB Q7KZI7" attribute_measured="residual activity" readout_units=% numeric_value=82.1
compound=O=c1cc(-c2cccc3c2Sc2ccccc2S3)oc(N2CCOCC2)c1 subject_of_test="UniProtKB Q7KZI7" attribute_measured="residual activity" readout_units=% numeric_value=86.3
compound=Nc1n[nH]c2nnc(-c3c(-c4ccccc4)nn4ccccc34)cc12 subject_of_test="UniProtKB Q7KZI7" attribute_measured="residual activity" readout_units=% numeric_value=104

Consider the following items and state reported residual activity for each.
1. CC(C)n1cnc2c(Nc3cccc(Cl)c3)nc(NCCO)nc21
2. CC(C)(C)c1nc2c3ccc(F)cc3c3c(=O)[nH]ccc3c2[nH]1
3. COc1cc2nccc(Oc3ccc(NC(=S)NC(=O)c4ccccc4C)cc3)c2cc1OC
4. CS(=O)c1ccc(-c2nc(-c3ccc(F)cc3)c(-c3ccncc3)[nH]2)cc1 (centres undefined)
5. Nc1nc(Nc2ccc(S(N)(=O)=O)cc2)nn1C(=S)Nc1c(F)cccc1F
6. O=C(Nc1ccc(Cl)cc1)c1ccccc1NCc1ccncc1
7. Oc1ccc(-c2nc(-c3ccc(F)cc3)c(-c3ccncc3)[nH]2)cc1
8. Cc1cc2ncc(-c3ccccc3)nc2cc1C

### Response
98.7
41.5
82.3
99.1
3.43
92.7
99
84.5

### Prompt I am curious: what residual activity value has been reported for CC(C)[C@H](CO)Nc1nc(Nc2cccc(Cl)c2)c2ncn(C(C)C)c2n1 ?
### Response 95.7

----------
Would you mind telling me the reported residual activity of each entry?
- SUBJECT OF TEST: UniProtKB Q9H2X6
- Sequence (Q9H2X6 whole entry, looked up): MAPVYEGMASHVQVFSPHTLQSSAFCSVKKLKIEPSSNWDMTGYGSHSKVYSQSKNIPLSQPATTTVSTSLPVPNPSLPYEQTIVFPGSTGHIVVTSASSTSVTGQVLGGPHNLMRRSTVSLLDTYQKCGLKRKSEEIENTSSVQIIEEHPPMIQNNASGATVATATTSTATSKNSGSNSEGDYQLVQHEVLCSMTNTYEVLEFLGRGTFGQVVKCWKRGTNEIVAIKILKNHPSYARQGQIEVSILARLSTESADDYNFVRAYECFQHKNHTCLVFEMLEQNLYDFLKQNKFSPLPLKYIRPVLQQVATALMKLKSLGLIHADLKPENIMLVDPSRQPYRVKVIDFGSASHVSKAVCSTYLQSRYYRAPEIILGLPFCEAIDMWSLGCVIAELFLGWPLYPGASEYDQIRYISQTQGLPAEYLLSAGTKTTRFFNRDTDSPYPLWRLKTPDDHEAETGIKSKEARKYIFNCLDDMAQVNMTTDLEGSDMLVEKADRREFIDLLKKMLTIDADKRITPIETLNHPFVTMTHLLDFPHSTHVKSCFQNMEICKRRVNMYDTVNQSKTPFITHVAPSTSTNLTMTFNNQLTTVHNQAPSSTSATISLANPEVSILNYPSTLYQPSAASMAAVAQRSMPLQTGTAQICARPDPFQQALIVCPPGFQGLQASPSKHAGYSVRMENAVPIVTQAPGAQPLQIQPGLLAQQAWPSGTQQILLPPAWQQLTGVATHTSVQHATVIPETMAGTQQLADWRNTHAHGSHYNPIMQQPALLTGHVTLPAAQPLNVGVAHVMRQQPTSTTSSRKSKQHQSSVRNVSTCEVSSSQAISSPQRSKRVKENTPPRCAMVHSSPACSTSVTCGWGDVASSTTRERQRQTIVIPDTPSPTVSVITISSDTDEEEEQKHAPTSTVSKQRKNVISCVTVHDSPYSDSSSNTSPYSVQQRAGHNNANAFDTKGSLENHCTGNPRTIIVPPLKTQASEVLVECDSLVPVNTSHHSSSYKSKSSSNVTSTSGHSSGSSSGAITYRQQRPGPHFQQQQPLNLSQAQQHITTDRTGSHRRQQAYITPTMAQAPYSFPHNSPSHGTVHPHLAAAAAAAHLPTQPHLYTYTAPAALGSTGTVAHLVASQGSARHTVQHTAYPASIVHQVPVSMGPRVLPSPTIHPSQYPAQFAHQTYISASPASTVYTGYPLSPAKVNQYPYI
- PROTOCOL: radiometric filter-binding kinase assay, Kinase HotSpot
- STATED CONDITIONS: compound 0.5 µM; ATP 10 µM
Numbers only, in %.

Here is how some compounds turned out for residual activity.
compound=COc1cc2ncnc(Nc3ccc(F)c(Cl)c3)c2cc1OCCCN1CCOCC1 attribute_measured="residual activity" numeric_value=99.7
compound=Nc1nc(Nc2ccc(S(N)(=O)=O)cc2)nn1C(=S)Nc1c(F)cccc1F attribute_measured="residual activity" numeric_value=62.1
compound=NC(=O)c1ccc(N(C(N)=O)c2c(F)cccc2F)nc1-c1ccc(F)cc1F attribute_measured="residual activity" numeric_value=100
compound="O=C(NC(NC(=S)Nc1ccc(F)c([N+](=O)[O-])c1)C(Cl)(Cl)Cl)C(c1ccccc1)c1ccccc1 (stereo not given)" attribute_measured="residual activity" numeric_value=118
compound=CC(C)[C@H](CO)Nc1nc(Nc2cccc(Cl)c2)c2ncn(C(C)C)c2n1 attribute_measured="residual activity" numeric_value=86.3

# return residual activity for each item in the list
1. Clc1ccc(Nc2nnc(Cc3ccncc3)c3ccccc23)cc1
2. COc1ccc(-c2cnc3c(-c4ccsc4)cnn3c2)cc1
3. CCCNC(=O)Nc1ccc(Oc2ncnc3cc(OC)c(OC)cc23)cc1Cl
4. CS(=O)c1ccc(-c2nc(-c3ccc(F)cc3)c(-c3ccncc3)[nH]2)cc1 (stereo not given)
5. O=C(Nc1ccc(Cl)cc1)c1ccccc1NCc1ccncc1
6. O=c1cc(-c2cccc3c2Sc2ccccc2S3)oc(N2CCOCC2)c1

### Response
[101, 91.2, 97.9, 102, 93, 105]

----------
- SUBJECT OF TEST: YES1 (human) (UniProt P07947)
- Sequence (P07947 whole entry, looked up): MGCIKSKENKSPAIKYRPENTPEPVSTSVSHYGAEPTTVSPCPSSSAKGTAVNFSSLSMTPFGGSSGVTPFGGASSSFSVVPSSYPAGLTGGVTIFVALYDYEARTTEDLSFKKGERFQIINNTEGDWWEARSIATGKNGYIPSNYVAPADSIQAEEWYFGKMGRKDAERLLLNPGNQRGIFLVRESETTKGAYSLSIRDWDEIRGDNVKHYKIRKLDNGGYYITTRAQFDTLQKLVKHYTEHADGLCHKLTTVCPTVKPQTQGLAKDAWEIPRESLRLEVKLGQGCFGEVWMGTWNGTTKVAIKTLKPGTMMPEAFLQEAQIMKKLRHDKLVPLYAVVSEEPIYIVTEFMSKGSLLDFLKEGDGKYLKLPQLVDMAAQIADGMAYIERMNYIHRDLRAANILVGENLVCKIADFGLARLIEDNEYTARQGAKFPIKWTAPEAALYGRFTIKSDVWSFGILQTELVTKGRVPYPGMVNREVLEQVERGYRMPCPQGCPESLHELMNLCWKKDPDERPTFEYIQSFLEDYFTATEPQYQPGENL
- PROTOCOL: radiometric filter-binding kinase assay, Kinase HotSpot
- STATED CONDITIONS: compound 0.5 µM; ATP 10 µM
// boundary case: residual activity equal to 80% maps to f; strictly smaller maps to t

Please review the following examples before continuing.
molecule=Nc1n[nH]c2nnc(-c3c(-c4ccccc4)nn4ccccc34)cc12 group_label=f
molecule=Clc1ccc(Nc2nnc(Cc3ccncc3)c3ccccc23)cc1 group_label=f
molecule="CSc1nc(-c2ccc(F)cc2)c(-c2ccnc(NC(C)c3ccccc3)c2)[nH]1 (configuration not stated)" group_label=f
molecule=Nc1nc(Nc2ccc(S(N)(=O)=O)cc2)nn1C(=S)Nc1c(F)cccc1F group_label=t
molecule=NC(=O)c1ccc(N(C(N)=O)c2c(F)cccc2F)nc1-c1ccc(F)cc1F group_label=f

### Prompt hey, is residual activity for COc1cc2ncnc(Nc3ccc(F)c(Cl)c3)c2cc1OCCCN1CCOCC1 lower than 80% or not?
### Response t

### Prompt Would you kindly repeat that for O=C1Nc2cc(Br)ccc2/C1=C1/Nc2ccccc2/C1=N\O ?
### Response t

### Prompt Same thing, different molecule: Oc1ccc(-c2nc(-c3ccc(F)cc3)c(-c3ccncc3)[nH]2)cc1
### Response f

### Prompt Entry to check: O=C(Nc1ccc(Cl)cc1)c1ccccc1NCc1ccncc1
### Response f

### Prompt How about this molecule: CS(=O)c1ccc(-c2nc(-c3ccc(F)cc3)c(-c3ccncc3)[nH]2)cc1 (configuration not stated)
### Response f

### Prompt // next record COc1cc2nccc(Oc3ccc(NC(=S)NC(=O)c4ccccc4C)cc3)c2cc1OC
### Response t

----------
Hi there, I'd appreciate the recorded residual activity for every entry that follows.
- SUBJECT OF TEST: UniProtKB P41279
- Sequence (P41279 whole entry, looked up): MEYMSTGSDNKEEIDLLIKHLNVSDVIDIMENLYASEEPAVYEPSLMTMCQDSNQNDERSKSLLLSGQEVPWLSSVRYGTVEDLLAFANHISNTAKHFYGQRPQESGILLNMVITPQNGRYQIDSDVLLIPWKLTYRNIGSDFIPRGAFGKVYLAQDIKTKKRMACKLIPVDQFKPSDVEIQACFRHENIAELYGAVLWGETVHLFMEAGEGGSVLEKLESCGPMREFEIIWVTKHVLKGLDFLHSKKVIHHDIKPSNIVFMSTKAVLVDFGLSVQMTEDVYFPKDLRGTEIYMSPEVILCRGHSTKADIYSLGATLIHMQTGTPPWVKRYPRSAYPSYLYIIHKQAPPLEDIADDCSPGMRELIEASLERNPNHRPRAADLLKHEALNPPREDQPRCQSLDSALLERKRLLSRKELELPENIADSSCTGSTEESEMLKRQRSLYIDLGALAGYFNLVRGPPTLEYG
- PROTOCOL: radiometric filter-binding kinase assay, Kinase HotSpot
- STATED CONDITIONS: compound 0.5 µM; ATP 10 µM
Give bare numbers, in %.

molecule=Cc1ccc(NC(=O)c2ccc(CN3CCN(C)CC3)cc2)cc1Nc1nc(-c2cccnc2)cs1 attribute_measured="residual activity" numeric_value=91.5
molecule=COc1cc2ncnc(Nc3ccc(F)c(Cl)c3)c2cc1OCCCN1CCOCC1 attribute_measured="residual activity" numeric_value=95.7
molecule=C#Cc1cccc(Nc2ncnc3cc(OCCOC)c(OCCOC)cc23)c1 attribute_measured="residual activity" numeric_value=91.8
molecule=NC(=O)c1ccc(N(C(N)=O)c2c(F)cccc2F)nc1-c1ccc(F)cc1F attribute_measured="residual activity" numeric_value=94.3
molecule="CS(=O)c1ccc(-c2nc(-c3ccc(F)cc3)c(-c3ccncc3)[nH]2)cc1 (stereo unspecified)" attribute_measured="residual activity" numeric_value=92.1

Dear reader, for each entry below, please note its residual activity.
1. CC(C)n1cnc2c(Nc3cccc(Cl)c3)nc(NCCO)nc21
2. Cc1cc2ncc(-c3ccccc3)nc2cc1C
3. O=c1cc(N2CCNCC2)oc2c(-c3ccccc3)cccc12
4. CCCNC(=O)Nc1ccc(Oc2ncnc3cc(OC)c(OC)cc23)cc1Cl
5. Nc1n[nH]c2nnc(-c3c(-c4ccccc4)nn4ccccc34)cc12
6. O=C1Nc2cc(Br)ccc2/C1=C1/Nc2ccccc2/C1=N\O

### Response
1. 92.2
2. 106
3. 95.2
4. 104
5. 95
6. 101

----------
- SUBJECT OF TEST: UniProtKB Q9NYY3
- Sequence (Q9NYY3 whole entry, looked up): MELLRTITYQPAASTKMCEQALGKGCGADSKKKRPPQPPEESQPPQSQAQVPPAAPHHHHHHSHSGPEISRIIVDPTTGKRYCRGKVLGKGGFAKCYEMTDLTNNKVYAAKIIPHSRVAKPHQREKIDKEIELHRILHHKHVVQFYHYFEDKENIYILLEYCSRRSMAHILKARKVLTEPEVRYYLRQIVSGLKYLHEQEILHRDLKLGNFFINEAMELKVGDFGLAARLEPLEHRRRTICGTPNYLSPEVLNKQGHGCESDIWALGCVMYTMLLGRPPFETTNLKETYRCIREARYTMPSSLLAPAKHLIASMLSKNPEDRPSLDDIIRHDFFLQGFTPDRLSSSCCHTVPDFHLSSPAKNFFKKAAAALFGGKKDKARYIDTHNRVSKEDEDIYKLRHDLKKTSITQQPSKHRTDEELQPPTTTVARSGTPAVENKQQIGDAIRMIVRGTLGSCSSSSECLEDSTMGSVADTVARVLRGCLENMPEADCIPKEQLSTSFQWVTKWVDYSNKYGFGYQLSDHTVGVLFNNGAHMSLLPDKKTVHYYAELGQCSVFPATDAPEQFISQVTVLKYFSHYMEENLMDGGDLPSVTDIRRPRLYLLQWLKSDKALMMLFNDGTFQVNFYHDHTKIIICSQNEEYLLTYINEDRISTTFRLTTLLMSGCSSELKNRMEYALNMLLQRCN
- PROTOCOL: radiometric filter-binding kinase assay, Kinase HotSpot
- STATED CONDITIONS: compound 0.5 µM; ATP 10 µM
ATTRIBUTE MEASURED: residual activity (%)
One number for each entry, in %.

Examples with their reported residual activity follow.
compound=CCCNC(=O)Nc1ccc(Oc2ncnc3cc(OC)c(OC)cc23)cc1Cl numeric_value=104
compound=CCN1/C(=C/C(C)=O)Sc2ccc(OC)cc21 numeric_value=100
compound=C#Cc1cccc(Nc2ncnc3cc(OCCOC)c(OCCOC)cc23)c1 numeric_value=104
compound="O=C(NC(NC(=S)Nc1ccc(F)c([N+](=O)[O-])c1)C(Cl)(Cl)Cl)C(c1ccccc1)c1ccccc1 (stereo unspecified)" numeric_value=92.9

Quick batch: residual activity for everything below.
1. Clc1ccc(Nc2nnc(Cc3ccncc3)c3ccccc23)cc1
2. Cc1cc2ncc(-c3ccccc3)nc2cc1C
3. O=c1cc(-c2cccc3c2Sc2ccccc2S3)oc(N2CCOCC2)c1
4. CSc1nc(-c2ccc(F)cc2)c(-c2ccnc(NC(C)c3ccccc3)c2)[nH]1 (stereo unspecified)

### Response
1. 101
2. 95
3. 84.6
4. 94.3

----------
Please provide measured residual activity for the entries that follow.
- SUBJECT OF TEST: PIM3 (human) (UniProt Q86V86)
- PROTOCOL: radiometric filter-binding kinase assay, Kinase HotSpot
- STATED CONDITIONS: compound 0.5 µM; ATP 10 µM
One number for each entry, in %.

Record excerpt, results attached:
compound=O=C1Nc2ccccc2/C1=C\c1c(Cl)[nH]c2ccccc12 numeric_value=100
compound=CC(C)(C)c1nc2c3ccc(F)cc3c3c(=O)[nH]ccc3c2[nH]1 numeric_value=33.9
compound=NC(=O)c1ccc(N(C(N)=O)c2c(F)cccc2F)nc1-c1ccc(F)cc1F numeric_value=97.7

Lab note: each compound below needs its residual activity filled in.
1. O=C(Nc1ccc(Cl)cc1)c1ccccc1NCc1ccncc1
2. O=C(NC(NC(=S)Nc1ccc(F)c([N+](=O)[O-])c1)C(Cl)(Cl)Cl)C(c1ccccc1)c1ccccc1 (configuration not stated)
3. O=c1cc(N2CCNCC2)oc2c(-c3ccccc3)cccc12
4. Nc1nc(Nc2ccc(S(N)(=O)=O)cc2)nn1C(=S)Nc1c(F)cccc1F
5. O=c1cc(-c2cccc3c2Sc2ccccc2S3)oc(N2CCOCC2)c1
6. O=C1Nc2cc(Br)ccc2/C1=C1/Nc2ccccc2/C1=N\O
7. COc1cc2nccc(Oc3ccc(NC(=S)NC(=O)c4ccccc4C)cc3)c2cc1OC
8. Clc1ccc(Nc2nnc(Cc3ccncc3)c3ccccc23)cc1

### Response
93
120
93.5
89.1
52.3
73.2
98.2
98.9

Where do the numbers come from? From the kinase profiling compilation of Christmann-Franck et al. (2016).
